Catalogue of GI50 readings, one per entry.
Tested on: UACC-257
procedure_text: NCI tumour cell line growth inhibition, 48 h
Calls of active or inactive are those of the source. Rule as the data show it: active = GI50 up to about 1.1 µM and inactive = higher. Starred links: 1 amine or outer side, 2 acyl side, 3 side chain; linkers in the order of their positions; H or OH if unused. Positions of bridges follow the written chain, without caps; N, C: chain ends. Non-standard residues stand in square brackets, D forms with d. Residues, ends and D or L forms follow the SMILES beside them. Chains are numbered I, II in the order given. Actinocin(9to1) = Cc1c2oc3c(C)ccc(C(=O)[*:1])c3nc-2c(C(=O)[*:2])c(N)c1=O; NMeV = CN[CH](C(=O)O)C(C)C; Sar = CNCC(=O)O

compound: COC(O)C(=O)c1c2c(cc3c1CCC3)CCCC2 (stereo unspecified)
GI50: 12.6 µM (inactive)

compound: CC(=O)OC(C)(C)CCC(=O)[C@](C)(O)[C@H]1[C@H](O)C[C@@]2(C)[C@@H]3CC=C4C(C)=C(OC5OC(CO)C(O)C(O)C5O)C(=O)C[C@@H]4[C@]3(C)C(=O)C[C@]12C (stereo partly specified)
GI50: > 100 µM (inactive)

compound: COCC(C)(C)/N=C/N1Cc2cc3ccccc3nc2C1
GI50: > 100 µM (inactive)

compound: Oc1nnc2c(-c3ccccc3)n[nH]c2n1
GI50: > 100 µM (inactive)

compound: Cc1c2oc3c(C)ccc(C(=O)NC4C(=O)NC(Cc5ccc(O)cc5)C(=O)N5CCCC5C(=O)N(C)CC(=O)N(C)C(C(C)C)C(=O)OC4C)c3nc-2c(C(=O)NC2C(=O)NC(Cc3ccc(O)cc3)C(=O)N3CCCC3C(=O)N(C)CC(=O)N(C)C(C(C)C)C(=O)OC2C)c(N)c1=O (stereo unspecified) (I: TYP[Sar][NMeV] / II: TYP[Sar][NMeV]; ester I:1-I:C, II:1-II:C; linker I:N-II:N via Actinocin(9to1); configuration not given here)
GI50: 1.56 µM (inactive)

compound: COc1cc2c(cc1OC)C1C(O)C(OC)C(Br)C3(Br)CCN(C2)C13 (stereo unspecified)
GI50: > 100 µM (inactive)

###

Tested on: OVCAR-3
procedure_text: NCI tumour cell line growth inhibition, 48 h
The source made the active and inactive calls. Rule as the data show it: active = GI50 up to about 1.1 µM and inactive = higher.
Labels: True (active), False (inactive)

compound: CCC1(c2ccc(OC)c(OC)c2)CCN2C(=O)C(O)CC21 (stereo not given)
qualitative_label: False
--
compound: CCCCC(C)/C=C/C(O)=C1\C(=O)O/C(=C\C(=O)O)C1=O (stereo not given)
qualitative_label: False
--
compound: Cc1c(-c2ccccc2)[nH]n(C2=NCCN2)c1=O
qualitative_label: False
--
compound: CN(C)Cc1cc(C(=O)/C=C/c2ccc(Cl)cc2Cl)cc(CN(C)C)c1O
qualitative_label: False
--
compound: O=c1[nH]c(=S)[nH]n1C(=S)n1[nH]c(=S)[nH]c1=O
qualitative_label: False
--
compound: N#Cc1c(-c2ccc(Cl)cc2)cc(-c2nc3ccccc3[nH]2)nc1N
qualitative_label: False
--
compound: CCCCCCCCCCCCCP(=O)(NCC(N)=O)OCC (stereo not given)
qualitative_label: False
--
compound: N#C/C(=C/c1ccc[nH]1)P(=O)(O)O
qualitative_label: False
--
compound: COc1ccc(/N=c2/oc3ccccc3cc2C(N)=O)cc1
qualitative_label: False
--
compound: C=C1C(=O)O[C@@]23C1CC[C@@H](C)C2CC[C@@]1(C)OC31 (stereo not given in full)
qualitative_label: False
--
compound: COc1c(C(=O)/C(=N/Nc2cccc(Cl)c2)C(C)=O)c(O)c(OC)c2occc12
qualitative_label: False
--
compound: C[C@@H]1C[C@H](O)[C@]2(O)O[C@@H]3C[C@@]4(C=O)[C@@H](CC[C@@H]5[C@@H]4CC[C@]4(C)[C@@H](C6=CC(=O)OC6)CC[C@]54O)C[C@H]3O[C@@H]2O1
qualitative_label: True
--
compound: COc1cc(/C=C(\C#N)c2nc3ccccc3o2)ccc1O
qualitative_label: False
--
compound: COc1cc(Nc2n[nH]c(NS(=O)(=O)c3cc(C)c(Cl)cc3S)n2)cc(OC)c1OC
qualitative_label: False
--
compound: O=c1c(O)c(-c2ccc(O)c(O)c2)oc2cc(O)ccc12
qualitative_label: False
--
compound: CC(=O)O[C@H]1[C@@H](OC2CCCC2(c2ccccc2)c2ccccc2)O[N+]([O-])=C[C@@H]1c1ccccc1 (stereo not given in full)
qualitative_label: False
--
compound: Cc1c(-c2ccccc2)[nH]c2cc(Cl)ccc2c1=O
qualitative_label: False
--
compound: Cc1nc2cc(/N=N/c3c(O)ccc4ccccc34)ccc2[nH]1
qualitative_label: False
--
compound: CN1/C(=C\N=O)C(C)(C)N(O)C1(C)C
qualitative_label: False
--
compound: CCOP(=O)(OCC)OC1c2[nH]ccc2-c2cc(C(=O)OC)[nH]c2C1OC (stereo not given)
qualitative_label: False
--
compound: Cc1cc(NN)nc2[nH]nc(N)c12
qualitative_label: False
--
compound: O=c1[nH]c(NCc2cccnc2)nc2[nH]cnc12
qualitative_label: False
--
compound: Cn1c2ccccc2n2c(=O)c3c(c(C#N)c12)CCCC3
qualitative_label: False
--
compound: CCOC(=O)C1C(=O)CC(O)(c2ccccc2)C(C(=O)OCC)C1c1ccc(N(C)C)cc1 (stereo not given)
qualitative_label: False
--
compound: CCC(C(=O)c1ccc(OC)c(OC)c1)N(C(=O)C(F)(F)F)C(C)c1ccccc1 (stereo not given)
qualitative_label: False
--
compound: O=C(O)c1ccc(Nc2nc3nn(Cc4ccccc4)cc3c(=O)s2)cc1
qualitative_label: False
--
compound: CN(C)CCCCN1CCc2c(n(C)c3ccccc23)C1=O
qualitative_label: False
--
compound: CCCCOC(=O)/C(CC(=O)C=C(C)C)=N\NS(=O)(=O)c1ccc(C)cc1
qualitative_label: False
--
compound: COCC1OC(OC2C3=C(C(C)C)CCC3(C)/C=C3\C(CCC3(O)COC)C(C)C2O)C(O)C2OC3OC12OC3(C)C1CO1 (stereo not given)
qualitative_label: False
--
compound: Cc1cccc2nc3n(c12)C(=O)c1ccccc1-3
qualitative_label: False
--
compound: Cc1nc2ccccc2n1Cc1nnc2n1N=C(c1ccccc1)CS2
qualitative_label: False
--
compound: O=C(O)COc1ccc(C(=O)/C(SS/C(C(=O)c2ccc(OCC(=O)O)c(Cl)c2Cl)=C2\C=C(c3ccccc3Cl)SS2)=C2/C=C(c3ccccc3Cl)SS2)c(Cl)c1Cl
qualitative_label: False
--
compound: CC(C)(C)N/N=C(/Cc1nc2c3c(ccc2nc1O)C(=O)c1ccccc1C3=O)C(=O)NC1=C(Cl)C(=O)c2ccccc2C1=O
qualitative_label: False
--
compound: CN(C)CCNCCN
qualitative_label: False
--
compound: CC1CC(C)(O)CC(C(O)CC2CC(=O)NC(=O)C2)C1=O (stereo not given)
qualitative_label: True
--
compound: CCOC(=O)C1C(=O)C=C(c2cc(C)ccc2O)CC1c1cccc(Cl)c1 (stereo not given)
qualitative_label: False
--
compound: O=C1CC2(CCN(CC3COc4ccccc4O3)CC2)C(=O)N1N1CCCCCC1 (stereo not given)
qualitative_label: False
--
compound: CCCCCCCC1C(C)c2c([nH]c3ccccc23)C2C(=O)N(c3ccc(OC)cc3)C(=O)C21 (stereo not given)
qualitative_label: False
--
compound: O=S(=O)(Cc1nc2ccccc2s1)c1nc2ccccc2s1
qualitative_label: False
--
compound: COc1ccc2[nH]c3c(C)c4cc[n+](COC(=O)c5ccccc5)cc4c(C)c3c2c1
qualitative_label: False

###

System: BT-549
procedure_text: NCI tumour cell line growth inhibition, 48 h
Active and inactive are the calls of the source. Cut-off read from the data, not from the text of the source: active = GI50 up to about 1.1 µM and inactive = higher.
Catalogue of GI50 readings, one per entry.

compound: CCC1(c2ccc(OC)c(OC)c2)CCN2C(=O)C(O)CC21 (stereo not given)
GI50: > 100 µM (inactive)
--
compound: NS(=O)(=O)c1ccc(-n2c(-c3cccs3)nc3ccc(I)cc3c2=O)cc1
GI50: 16.3 µM (inactive)
--
compound: O=C1CCc2ccc3c(c21)CC1(Cc2ccccc2C1)C3
GI50: 10 µM (inactive)
--
compound: CC(C)(C)N/N=C(/Cc1nc2c3c(ccc2nc1O)C(=O)c1ccccc1C3=O)C(=O)NC1=C(Cl)C(=O)c2ccccc2C1=O
GI50: 70.5 µM (inactive)
--
compound: CC(=O)OC12CC[N+]3(C)CCCCC3C1=Nc1ccccc12 (stereo not given)
GI50: > 100 µM (inactive)

###

Test system: BT-549
procedure_text: NCI tumour cell line growth inhibition, 48 h
Activity calls are given as the source filed them. Rule as the data show it: active = GI50 up to about 1.1 µM and inactive = higher.
Labels: active, inactive

compound: NC12Oc3cc(O)cc(O)c3C1(c1ccc(Cl)cc1)c1c(O)cc(O)cc1O2 (stereo not given)
measurement_target: BT-549
qualitative_label: inactive

compound: C/C(=N/NC(=S)N1CCCC1)c1cccc(/C(C)=N\NC(=S)N2CCCC2)n1
measurement_target: BT-549
qualitative_label: inactive

compound: O=C1c2cccnc2-c2nccc3c2c1nc1ccccc13
measurement_target: BT-549
qualitative_label: active

compound: O=[N+]([O-])c1ccc(-c2cn(-c3ccc(Cl)cc3)cn2)cc1
measurement_target: BT-549
qualitative_label: inactive

compound: COC(=O)C(Cc1c[nH]c2ccccc12)NP(=O)(O)OCC1OC(n2cc(F)c(=O)[nH]c2=O)CC1O (stereo not given)
measurement_target: BT-549
qualitative_label: inactive
